Test system: Micrococcus luteus
Test: Evaluated for its antimicrobial activity against Micrococcus luteus (9341)
Assay type: functional
Reported MIC values for a set of compounds
Number only, in µg/mL; omit the unit.

C[C@H](COC(=O)NCCCNCCCCNCCC[N+](C)(C)C)[C@H]1CC[C@H]2[C@@H]3CC[C@@H]4C[C@H](O)CC[C@]4(C)[C@H]3CC[C@]12C : 1.56
C[C@H](COC(=O)NCCCNCCCCN)[C@H]1CC[C@H]2[C@@H]3CC[C@@H]4C[C@H](O)CC[C@]4(C)[C@H]3CC[C@]12C : 1.56

Tell me the measured MIC of `C[C@H](COC(=O)NCCCNCCCCN)[C@H]1CC[C@H]2[C@@H]3CC[C@H]4C[C@H](O)CC[C@]4(C)[C@H]3CC[C@]12C` , please.
3.13
